property name: melting point

Cn1nc(C(F)F)c(CS(=O)(=O)C2=NOC(C)(C)C2)c1Cl    78 to 79 °C
C/C(=C\c1ccc(C(F)(F)F)cc1)C(=O)Nc1cc(Cl)ccc1C(=O)O    228 to 229 °C
C(=C1c2ccccc2-c2ccccc21)c1nc(COc2ccc(CCCn3ccnc3)cc2)co1    116 to 117 °C
CCOC(=O)C=Cc1cc(OCc2ccccc2)ccc1-c1ccc(-c2cccc(C(F)(F)F)c2)c(C=O)c1    116 to 118 °C
CO/C(=C\C=C\c1cc2ccccc2[nH]1)C(=O)O    189 to 190 °C

Here are 4 compounds. What values of melting point were reported for them?
1. Clc1ccc(-c2cc(C3=CCN(Cc4c[nH]c5ncccc45)CC3)on2)cc1
2. Cc1ccc(C(c2cc(C(C)(C)C)cc(C(C)(C)C)c2O)N(C)C)cc1C (centres undefined)
3. Cc1nc(N)ccc1-c1ccncc1
4. Cc1c(C)c2c(c(C)c1NC(=O)c1ccc(C(=O)O)cc1)C(c1ccc(C(C)C)cc1)C(C)(C)O2 (centres undefined)

## Output
1: 245 to 247 °C; 2: 82 to 85 °C; 3: 207 to 209 °C; 4: 258 to 261 °C

----------
property name: melting point

O=C1C(=O)c2ccccc2C2=C1SCC1(CCN(S(=O)(=O)c3c(Cl)nc4sccn34)CC1)O2    265 to 267 °C
COc1ccc(CCN(C)CCCC2(c3ccc(OC)c(OC)c3)S(=O)(=O)CCCS2(=O)=O)cc1OC    144 °C
CCSc1nccn1N1CCN(c2ccc(OC)cc2)CC1    112 °C
CCCCc1nc(Cl)c(/C=C(\Cc2ccccc2)C(=O)O)n1Cc1ccc(-c2c(O)c(=O)c2=O)cc1    155 to 160 °C
Cn1cc(SC(F)(F)F)c(=O)c(-c2cccc(C(F)(F)F)c2)c1    122 to 124 °C
NCC(=O)NC(Cc1cccnc1)c1ccccc1 (centres undefined)    93.5 to 94.5 °C
CCCc1c(COc2ccc(Cc3nnn(CCCS(C)(=O)=O)n3)cc2)ccc(C(C)=O)c1O    89 to 91 °C
COc1cccc(C(=O)N2C(=O)CN(c3ccccc3)C2=O)c1    161 to 162 °C

Please find the next compound below.
## Input For the compound CCCNCc1cnc2c(C)c(NC(=O)c3ccc(OC[C@@H]4CCCO4)cc3F)ccc2c1 , give its measured melting point value.
## Output 120 to 121 °C

----------
property name: melting point

Look over these answered cases.
Cn1cnc2cc(NC(=O)c3cc4cc(F)ncc4n3Cc3cccc(F)c3)ccc21    279 to 281 °C
CC1(C)COC(c2ccccc2)(c2ccc(N)c([N+](=O)[O-])c2)OC1    140 °C
COc1ccc(S(=O)(=O)C[N+](=O)[O-])s1    70 to 71 °C
CCCCc1c(C(=O)O)cc(Cl)cc1[N+](=O)[O-]    218 to 220 °C

Here are 5 compounds. What values of melting point were reported for them?
1. COc1ccc(C2=CCCCc3cc(OCc4ccccc4)ccc32)cc1
2. O=C(Nc1cc(-c2ccnc3c(C(=O)c4cccs4)cnn23)ccc1F)c1ccccc1Cl
3. CS(=O)(=O)c1ccccc1S(=O)(=O)Nc1cccc2cc(C(=O)NCCSC(c3ccccc3)(c3ccccc3)c3ccccc3)[nH]c12
4. CCCCCN1C(=O)CN=C(c2ccccc2)c2ccccc21
5. ClCc1coc(-c2ccc(Cl)o2)n1

## Output
76 to 78 °C
166 to 168 °C
91 to 93 °C
93 to 95 °C
107 to 108 °C

Here are 8 compounds. What values of melting point were reported for them?
1. CN(CCCCNC(=NCCCOc1cccc(CN2CCCCC2)c1)NC#N)CCC(c1ccc(F)cc1)c1ccccn1 (centres undefined)
2. CC(O)(CCCc1ccc(Cl)cc1)c1ccc(OCc2ccc3ccccc3n2)cc1 (centres undefined)
3. c1ccc(COc2ccc(Nc3ccn(-c4ccccc4)n3)cc2)cc1
4. CC(=O)NC(C)COC1CCC(c2cc3ccc(OCC4CC4)cc3o2)CC1 (centres undefined)
5. CCCCCCOc1ccc(C(=O)O)cc1Cl
6. Cc1ccc(-c2ccc3c(c2)C=C(C(=O)Nc2ccc(CN(C(C)C)C(C)C)cc2)CCO3)cc1
7. Cn1c(-c2ccccc2Cl)c2ccsc2nc1=O
8. O=S(=O)(NCCc1ccc(CCO)cc1)c1cccc(C(F)(F)F)c1

## Output
1. 105 to 110 °C
2. 110 to 112 °C
3. 145 to 146 °C
4. 104 to 105 °C
5. 140 °C
6. 152 to 153 °C
7. 190 to 192 °C
8. 70 to 72 °C

Here are 3 compounds. What values of melting point were reported for them?
1. CCCCCCCCNC(=O)CSc1nc(Cl)cc(Nc2cccc(C)c2C)n1
2. CC1CC2C(C(O)CC3(C)C2CCC3(O)C(=O)COCc2ccccc2[N+](=O)[O-])C2(C)C=CC(=O)C=C12 (centres undefined)
3. O=C(Nc1ncccn1)c1c(O)ccc2cc(-c3cccc(O)c3)ccc12

## Output
["144 to 146 °C", "116 to 119 °C", "156 °C"]

Here are 3 compounds. What values of melting point were reported for them?
1. CCOC(=O)c1ccc(-c2[nH]nc3c2C(=O)c2c(NC(=O)N(NC)NC)cccc2-3)s1
2. CC1(C)CCOc2cc(C(=O)Nc3ccc(C(=O)O)cc3)ccc21
3. O=C(c1ccncc1)c1cc(Br)cc(Br)c1

## Output
1: 252 °C; 2: 279 to 281 °C; 3: 89 to 92 °C

Here are 6 compounds. What values of melting point were reported for them?
1. O=C(Nc1ccccc1)O[C@H]1CSC(c2ccccc2)=N[C@@H]1c1ccccc1 (racemic)
2. CC(C)(C)C(NC(=O)c1cc(Cl)cc(Cl)c1)Nc1c(Nc2cccnc2Cl)c(=O)c1=O (centres undefined)
3. C=C(C)C(=O)OC1=CC(C(=O)O)C(O)(C(C)=O)C=C1 (centres undefined)
4. CCC(=O)Nc1cc(NC(=O)CC)cc([N+](=O)[O-])c1
5. COC12CC(CN3CCC(c4c[nH]c5ccccc45)CC3)CN(C)C1Cc1c[nH]c3cccc2c13 (centres undefined)
6. COc1nc2cc(Br)cc(CNC(=O)C(=O)O)c2nc1OC

## Output
1: 159 °C; 2: 233 to 234 °C; 3: 150 °C; 4: 197 to 198 °C; 5: 222 to 227 °C; 6: > 300 °C

Here are 5 compounds. What values of melting point were reported for them?
1. Cc1ccc(NCc2ccc[nH]2)cc1O
2. Cc1cccc2c1N(CC(=O)N1CC3CCC(CC3)C1)C(=O)C(NC(=O)Nc1cccc(C=NO)c1)N=C2c1ccccc1F (centres undefined)
3. Cc1nc(CCCCn2cnc3c2c(=O)n(C)c(=O)n3C)no1
4. N#Cc1sc(N2CCCC2)nc1N
5. Cc1n[nH]c2cc(F)c(C3C(C#N)=C(C(F)F)NC(C(F)F)=C3C#N)cc12

## Output
1: 115 to 117 °C; 2: 196 to 199 °C; 3: 131 to 132 °C; 4: 305 to 308 °C; 5: 282 °C

Here are 5 compounds. What values of melting point were reported for them?
1. Clc1ccc2nc(-c3cccs3)c(-c3ccncc3)n2n1
2. CSc1ncc2n1-c1ccc(Cl)cc1C(c1ccccc1F)=NC2
3. Cc1c(NC(=O)CC(C)(C)C)cc2c(c1C)OC(C)(C)C2(O)c1ccc(Br)cc1 (centres undefined)
4. COc1ccc(C(C#N)C(=O)C(=O)C(C#N)c2ccccc2)cc1 (centres undefined)
5. CN(c1ccccc1-c1ccc2cnc(Nc3ccc(N4CCN(CC(N)=O)CC4)c(F)c3)nn12)S(C)(=O)=O

## Output
1. 208 to 210 °C
2. 180 to 181 °C
3. 118 to 119 °C
4. 256 to 258 °C
5. 148 °C

----------
property name: melting point

Look over these answered cases.
O=C(OCc1ccccc1)N1CCC(NCC(O)Cn2ccnc2[N+](=O)[O-])C(O)C1 (stereo not given)    140 to 142 °C
COc1ccc2c(Cc3c(Cl)cncc3Cl)nncc2c1C=Cc1ccccc1    180 to 182 °C
CC(C)c1nn(-c2ccc(C(F)(F)F)cc2)cc1CO    84 to 85 °C
N#Cc1cnc2cc3ccc(O)cc3cc2c1Nc1ccc(Cl)cc1Cl    > 300 °C

Please find the next compound below.
## Input For the compound CC1=CC(=O)C(O)=CC1=CC=Cc1ccccc1 , give its measured melting point value.
## Output 164 to 165 °C

----------
Task for the reader: assign each of the following molecules its reported melting point.

Look over these answered cases.
COC(=O)c1c(C(F)(F)F)[nH]c2c(OCc3ccccc3)cc3c(c12)C(CCl)CN3C(=O)OC(C)(C)C (centres undefined)    162 °C
CCOC(=O)C(=Cc1ccccc1)S(=O)(=O)NC(C)(C)C    111 to 113 °C

Here are 7 molecules. What values of melting point were reported for them?
1. Cc1ccccc1C1c2cc(Cl)ccc2OC(=O)C1C(=O)N(C)Cc1cc(C(F)(F)F)cc(C(F)(F)F)c1 (centres undefined)
2. COc1cc(NC(NC(C)C(C)(C)C)=C(C#N)S(C)(=O)=O)cc(C(F)(F)F)c1 (centres undefined)
3. N#Cc1cnc2cc3cc(O)c(O)cc3cc2c1Nc1ccc(Cl)cc1Cl
4. Cn1ncc2c(=O)n3c(nc21)SCCC3
5. COc1cccc(O[C@@H]2COc3ccc(-c4ccc5cc(F)ccc5n4)cc3[C@@H]2O)c1 (relative stereo)
6. O=C(NO)c1ccccn1
7. COc1ccc(CN2CCOCC2)c(OC)c1-c1ccc(C[C@H](NC(=O)c2c(Cl)cccc2Cl)C(=O)O)cc1

## Output
["148 to 149 °C", "110 to 113 °C", "> 260 °C", "179 to 180 °C", "131 to 132 °C", "58 to 68 °C", "241 to 242 °C"]
